Values from the supplement of paper PMC6555819

- System: PXR:RXRa (NR concentration 270 nM, RXRa partner concentration 90 nM)
- Assay Comment: PBM binding z-score (relative to random genomic background probes); higher = stronger binding; sequences stand for … in GC…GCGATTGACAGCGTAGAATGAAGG
Reported PBM binding z-score maps to class as: band 1 (below 0.5), band 2 (0.5 to below 3), band 3 (3 or more)

// query Just checking, what class would you give `CCTACTTGGCCAAGGTCATTGATCAGTCAAAGCA` here?
// result band 3

// query Just checking, what class would you give `CCTAGCAGACCAGGGTCACTCAAGCATTTCGCTT` here?
// result band 2

// query Just checking, what class would you give `TCAATTAGTTGATTAGGGCAACCGAAACAGCGGA` here?
// result band 1

// query Just checking, what class would you give `TATACAGGGTCAAAGGCCAGAGTGCGAATGTCGA` here?
// result band 3

// query Just checking, what class would you give `TGTCAAAGTTCATAGGTAACGTAAGTATCCACAC` here?
// result band 3

// query Just checking, what class would you give `CATACAGGGTCAGCTAGGCCTGAGTAGGGACGGC` here?
// result band 2

// query Just checking, what class would you give `GGAACGAGGGGAAGTTGATAGCAGAGTTTGATGG` here?
// result band 1

// query Just checking, what class would you give `TGAATGAGGTTATAAGATCATGGAACGTTGCAAA` here?
// result band 2

// query Just checking, what class would you give `TGTCAAAGTTCAAAGGTAACGTACGTATCCACAC` here?
// result band 3

// query Just checking, what class would you give `TGAATGAGATTATAAGATCAGGGAACGTTGCAAA` here?
// result band 1

// query Just checking, what class would you give `CGAACTAGGTCATTGACGGGACAGTGAATAGTAA` here?
// result band 2

// query Just checking, what class would you give `CTTGAAAGGTCGTGCTCAGGTGAGTATACCAAAC` here?
// result band 3

// query Just checking, what class would you give `CCGACTGGGGCCGAAAGGTTACCATACCATCCGG` here?
// result band 2

// query Just checking, what class would you give `CCGAGTAGGTTATGGGGCATTGAGGCAACGGTGA` here?
// result band 1

// query Just checking, what class would you give `CCCTACGGGTCAAGGTTATAGCACGGGTGGTACG` here?
// result band 3

// query Just checking, what class would you give `CCTTACGGGTCACTGACAGGGTATAGCATTTGGA` here?
// result band 2

// query Just checking, what class would you give `CCTTACGGGTCCAGGTTATAGCACGGGTGGTACG` here?
// result band 1

// query Just checking, what class would you give `AGTCAAAGTTCATCTAGGTAATGTAAGATATGCT` here?
// result band 3

// query Just checking, what class would you give `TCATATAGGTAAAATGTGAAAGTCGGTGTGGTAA` here?
// result band 1

// query Just checking, what class would you give `TCACGGAGGACACGAAGGTCAGAGCTTTCCAGAG` here?
// result band 2

// query Just checking, what class would you give `CCAGACAGGTGAAAGGTAAGTCAGTCTGGTACGC` here?
// result band 2

// query Just checking, what class would you give `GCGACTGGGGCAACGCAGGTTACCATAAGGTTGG` here?
// result band 2

// query Just checking, what class would you give `TCTATCAGGCCAGAGGGTCACTCAAGAGGTACGG` here?
// result band 2

// query Just checking, what class would you give `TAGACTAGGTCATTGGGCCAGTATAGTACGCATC` here?
// result band 2

// query Just checking, what class would you give `ATATGTAGGTTACAACCGGGTCATTCAGGCTATG` here?
// result band 3

// query Just checking, what class would you give `CGAACGAGGGCATGAGGTGATAGCAAATGCCGAT` here?
// result band 1

// query Just checking, what class would you give `CCGACTGGGGCAAGGTTAACATAACGCACAGCCA` here?
// result band 2

// query Just checking, what class would you give `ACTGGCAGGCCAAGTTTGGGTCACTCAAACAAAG` here?
// result band 2

// query Just checking, what class would you give `CCGAGTAGGTTATGGGGCATACAGGCAACGGTGA` here?
// result band 1
